Biological target: TPH1 (tryptophan hydroxylase 1) (Homo sapiens (Human), UniProt P17752)
Sequence (P17752 whole entry): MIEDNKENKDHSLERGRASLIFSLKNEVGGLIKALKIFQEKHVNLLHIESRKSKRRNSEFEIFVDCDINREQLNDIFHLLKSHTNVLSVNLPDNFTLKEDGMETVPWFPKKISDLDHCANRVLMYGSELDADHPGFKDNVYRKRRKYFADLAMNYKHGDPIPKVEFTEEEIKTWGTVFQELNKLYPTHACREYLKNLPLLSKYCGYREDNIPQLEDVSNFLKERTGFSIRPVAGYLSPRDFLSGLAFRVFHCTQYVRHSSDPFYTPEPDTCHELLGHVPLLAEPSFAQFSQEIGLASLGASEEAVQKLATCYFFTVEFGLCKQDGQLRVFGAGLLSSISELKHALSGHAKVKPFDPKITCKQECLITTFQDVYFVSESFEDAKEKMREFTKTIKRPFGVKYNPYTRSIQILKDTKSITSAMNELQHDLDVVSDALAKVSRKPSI
Assay: TPH1 inhibitor screening assay kit (BPS Bioscience), fluorescence
Assay type: biochemical
Settings: TPH1 enzyme, 4 hours at 4° C., ex 300 nm / em 360 nm
Where a name gives a salt, the structure may show the parent alone.
Quantity Kind: IC50 (nM)
Answers are plain numbers, in nM.

Consider the worked cases shown below.
- Compound: "Cc1ccn(-c2cc(Cl)ccc2[C@@H](Oc2cc(C3=CCC(C[C@H](N)C(=O)O)CC3)nc(C)n2)C(F)(F)F)n1 (stereo partly drawn) [Example 32, hydrochloride]"
  Tested Target: "TPH1 (tryptophan hydroxylase 1) (Homo sapiens (Human), UniProt P17752)"
  Reported: 1820
- Compound: "COc1cccc(-c2ccc([C@@H](Oc3cc(C4=CCC5(CC4)CNC(C(=O)O)C5)nc(N)n3)C(F)(F)F)cc2)c1 (stereo partly drawn)"
  Tested Target: "TPH1 (tryptophan hydroxylase 1) (Homo sapiens (Human), UniProt P17752)"
  Reported: 409

// moving on: another record for IC50
Prompt line: Item under review: Cc1ccn(-c2cc(Cl)ccc2[C@@H](Oc2nc(N)nc3c(-c4ccc(C[C@H](N)C(=O)O)cc4)csc23)C(F)(F)F)n1 [Example 91, hydrochloride] . Reported IC50?
Response line: 208

----------
Biological target: TPH1 (tryptophan hydroxylase 1) (Homo sapiens (Human), UniProt P17752)
Assay: TPH1 inhibitor screening assay kit (BPS Bioscience), fluorescence
Format: biochemical
Conditions: TPH1 enzyme, 4 hours at 4° C., ex 300 nm / em 360 nm; hydrochloride
Structures can show the parent of a compound that is named as a salt.
Hi there, I'd appreciate the recorded pIC50 for every entry that follows.
Give bare numbers, as −log10 of the molar value.

Worked examples, 5 compounds total:
- Compound: "COc1cccc(-c2ccc([C@@H](Oc3cc(C4=CCC5(CC4)CNC(C(=O)O)C5)nc(N)n3)C(F)(F)F)cc2)c1 (stereo partly drawn) [Example 87, hydrochloride]"
  Reported: 6.13
- Compound: "COc1cccc(-c2ccc([C@@H](Oc3cc(C4=CCC(C[C@H](N)C(=O)O)CC4)nc(N)n3)C(F)(F)F)cc2)c1 (stereo partly drawn) [Example 34, hydrochloride]"
  Reported: 6.55
- Compound: "N[C@@H](Cc1ccc(-c2csc3c(O[C@H](c4ccc(Cl)cc4C4=CCCOC4)C(F)(F)F)ncnc23)cc1)C(=O)O [Example 69, hydrochloride]"
  Reported: 6.58
- Compound: "Nc1nc(O[C@H](c2ccc(Cl)cc2C2=CCCOC2)C(F)(F)F)cc(C2=CCC(C[C@H](N)C(=O)O)CC2)n1 (stereo partly drawn) [Example 66, hydrochloride]"
  Reported: 6.90
- Compound: "Cc1ccn(-c2cc(Cl)ccc2[C@@H](Oc2cc(C3=CCC(C[C@H](N)C(=O)O)CC3)nc(N)n2)C(F)(F)F)n1 (stereo partly drawn) [Example 31, hydrochloride]"
  Reported: 6.94

// moving on: another record for pIC50
Prompt line: Need pIC50, item Cc1ccn(-c2cc(Cl)ccc2[C@@H](Oc2cc(C3=CCC4(CC3)CNC(C(=O)O)C4)nc(N)n2)C(F)(F)F)n1 (stereo partly drawn) [Example 79, hydrochloride]
Response line: 6.73

----------
Molecular target: TPH1 (tryptophan hydroxylase 1) (Homo sapiens (Human))
Test: TPH1 inhibitor screening assay kit (BPS Bioscience), fluorescence
Format: biochemical
Conditions: TPH1
Structures can show the parent of a compound that is named as a salt.
Quantity Kind: pIC50
Numbers only, as −log10 of the molar value.

// for each compound in input: emit pIC50
1. Nc1nc(O[C@H](c2ccc(Cl)cc2C2=CCCOC2)C(F)(F)F)cc(C2=CCC(C[C@H](N)C(=O)O)CC2)n1 (stereo partly drawn) [Example 67]
2. Cc1ccn(-c2cc(Cl)ccc2[C@@H](Oc2ncnc3c(-c4ccc(C[C@H](N)C(=O)O)cc4)csc23)C(F)(F)F)n1 [Example 8, hydrochloride]
3. Cc1ccn(-c2cc(Cl)ccc2[C@@H](Oc2cc(C3=CCC(C[C@H](N)C(=O)O)CC3)nc(N)n2)C(F)(F)F)n1 (stereo partly drawn) [Example 45]

Response line:
1: 7.04; 2: 7.44; 3: 7.01

The measured values listed here are drawn from patent US11407763B2.
